Tested on: DLD-1
protocol.description: NCI tumour cell line growth inhibition, 48 h
The source made the active and inactive calls. Rule as the data show it: active = GI50 up to about 1.1 µM and inactive = higher.

compound	GI50
O=C(/C=C/c1ccccc1)NC1C=Nc2ccc([N+](=O)[O-])cc2NC1=O (centres undefined)	> 100 µM (inactive)
O=S(=O)(N/N=C/c1ccc(Cl)cc1Cl)c1ccccc1	> 100 µM (inactive)
CC(C)CC(CNC(Cc1ccc(Cl)cc1)C(N)=O)NC(=O)C(Cc1c[nH]cn1)NC(=O)CNC(=O)C(NC(=O)C(C)NC(=O)C(Cc1c[nH]c2ccccc12)NC(=O)C(CCC(=O)O)NC(=O)C(N)Cc1ccccc1)C(C)C (centres undefined)	> 133 µM (inactive)
O=C1NC2OC(CO)C(O)C(O1)C2O (centres undefined)	> 100 µM (inactive)

Ref: ChEMBL document CHEMBL1201862
